FYI, the data here is from paper PMC9000592.

systemTested: CYP3A2 (Rattus norvegicus, UniProt P05183)
Sequence (P05183 whole entry): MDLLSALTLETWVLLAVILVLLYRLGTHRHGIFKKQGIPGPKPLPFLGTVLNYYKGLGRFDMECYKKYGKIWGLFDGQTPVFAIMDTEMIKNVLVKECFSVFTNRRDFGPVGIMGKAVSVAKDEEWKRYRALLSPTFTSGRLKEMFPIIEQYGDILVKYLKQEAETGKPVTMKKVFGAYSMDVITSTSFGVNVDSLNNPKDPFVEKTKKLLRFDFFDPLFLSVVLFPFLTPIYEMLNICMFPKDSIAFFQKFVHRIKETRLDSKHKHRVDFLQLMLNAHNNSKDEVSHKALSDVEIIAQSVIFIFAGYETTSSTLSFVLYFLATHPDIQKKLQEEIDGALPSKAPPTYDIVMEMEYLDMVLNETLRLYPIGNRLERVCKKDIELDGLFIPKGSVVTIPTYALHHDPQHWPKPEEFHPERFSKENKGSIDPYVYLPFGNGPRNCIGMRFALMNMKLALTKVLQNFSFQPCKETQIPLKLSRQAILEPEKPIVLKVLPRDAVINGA
testName: Inhibition of CYP3A2-mediated dexamethasone 6β-hydroxylation in rat liver microsomes (HPLC)
conditionNotes: male, Sprague Dawley, rat, microsomes, pH 7.4
measuredEndpoint: inhibition at 40 min, 100 µM (%)
One number for each entry, in %.

inhibition at 40 min, 100 µM in this record for CC(C)Cc1ccc(C(C)C(=O)O)cc1 (stereo not shown) : 34.7
